From: patent US20150368338A1

Please provide measured pKd for the entries that follow.
Target: T1, human IFN-ω (human, UniProt P05000 24-195)
T1 construct: Recombinant, HEK293; also called interferon omega
Test: ProteOn SPR, cell supernatant;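 also: each binding measurement used just a single antigen concentration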
One number for each entry, as −log10 of the molar value.

Before answering, review these 2 worked examples.
[[record]]
binder = "IFWM3416 (antibody, IgG1, V domains shown, mAb; IgG1/kappa said of the parent and of selected mAbs; also called IFWB3151) VH: EVQLVQSGAEVKKPGESLKISCKGSGYSFTSYWIGWVRQMPGKGLEWMGIIDPSDSDTRYSPSFQGQVTISADKSISTAYLQWSSLKASDTAMYYCARHPGLAWAPDFDYWGQGTLVTVSS VL: DIQMTQSPSSLSASVGDRVTITCRASQSIRNTNLNWYQQKPGKAPKLLIHWASSLQSGVPSRFSGSGSGTDFTLTISSLQPEDFATYYCQQGYDTPFTFGQGTKVEIK"
valuereported = 10.55

[[record]]
binder = "IFWM3419 (antibody, IgG1, V domains shown, mAb; IgG1/kappa said of the parent and of selected mAbs; also called IFWB3154) VH: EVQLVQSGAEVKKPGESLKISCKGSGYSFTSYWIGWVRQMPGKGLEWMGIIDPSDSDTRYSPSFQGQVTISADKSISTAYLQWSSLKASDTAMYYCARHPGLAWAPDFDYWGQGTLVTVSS VL: DIQMTQSPSSLSASVGDRVTITCRASQSIAGFLNWYQQKPGKAPKLLIYYASSLQSGVPSRFSGSGSGTDFTLTISSLQPEDFATYYCQQSYSIPITFGQGTKVEIK"
valuereported = 10.07


Please give the documented pKd of IFWM3384 (antibody, IgG1, V domains shown, mAb; IgG1/kappa said of the parent and of selected mAbs; also called IFWB3119) VH: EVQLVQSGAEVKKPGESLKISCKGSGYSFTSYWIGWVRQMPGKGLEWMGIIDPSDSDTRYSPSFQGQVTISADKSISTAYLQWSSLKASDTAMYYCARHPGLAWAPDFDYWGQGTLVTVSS VL: DIQMTQSPSSLSASVGDRVTITCRASQSITNFLNWYQQKPGKAPKLLIYFASSLQSGVPSRFSGSGSGTDFTLTISSLQPEDFATYYCQQSLDFPLTFGQGTKVEIK
10.59
